Reference for the values: PubChem BioAssay AID1159580

# assay-overview: chemical genetic growth profiling, strain panel (AID 1159580);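 note: tested at 20 µM; growth read once vehicle control cultures reached saturation at 30 °C; 1 = growth at the plate median or of vehicle wells; lower values mean less growth of the strain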
# experimental-conditions: S. cerevisiae deletion strains, growth OD, locus YBR136W, strain MEC1
The whole screen tested about 5,500 compounds, of which about 2,000 (36%) were called active. Not shown: some 18% with an inconclusive outcome. Cut-off read from the data, not from the text of the source: active = normalized growth mostly below about 0.91 (no sharp cut-off); inconclusive = no clear call, values can overlap the other calls; inactive = mostly above about 0.92. The list shows a part of the results.
Labels: active, inactive

| molecule | class-name |
| --- | --- |
| Cc1ccc(/C=C2\CSc3ccc(F)cc3C2=O)cc1 | inactive |
| O=S(=O)(Nc1cccc(CCc2ccccn2)c1)c1cc(Cl)c(Cl)cc1Cl | inactive |
| CSC1=NNC(c2nn(C)cc2Cl)S1 (stereo unspecified) | active |
| Cc1cc(C(=O)NNc2ccc(F)cc2F)no1 | inactive |
| OC1(C(F)(F)F)CC(C23CC4CC(CC(C4)C2)C3)=NN1 (stereo unspecified) | active |
| Cc1nnsc1C(=O)NNc1ccc(F)cc1F | inactive |
| Cc1nn(Cc2cccc(C(=O)Nc3ccc(Cl)cc3)c2)c(C)c1Br | inactive |
| Cc1ccccc1C(=O)Oc1ccc(C(F)(F)F)cc1[N+](=O)[O-] | inactive |
| Nc1ccccc1SCc1c(Cl)cccc1Cl | inactive |
| Cc1nnsc1C(=O)NNc1c(Cl)cccc1Cl | inactive |
| N#CC(C#N)=C(SCc1c(Cl)cccc1Cl)SCc1c(Cl)cccc1Cl | inactive |
| COc1ccc(CN2CSC(=S)N(Cc3ccc(OC)cc3)C2)cc1 | inactive |
| N#Cc1ccc(S(=O)(=O)Nc2ccccc2Oc2ccc(Cl)cc2Cl)cc1 | inactive |
| O=C(N/C=C/c1ccsc1)Nc1cc(C(F)(F)F)cc(C(F)(F)F)c1 | inactive |
| COc1cc2c(cc1OC)C(C)N(C(=O)c1sc3ccccc3c1Cl)CC2 (stereo unspecified) | inactive |
| O=C(CSc1nnnn1-c1ccccc1)c1ccccc1 | inactive |
| Cc1c(Cc2ccc(F)cc2)c(=O)oc2cc(O)ccc12 | inactive |
| COc1cc(NC(=S)NC(=O)c2ccccc2)c(OC)cc1Cl | inactive |
| Cc1ccc(-c2csc(-c3cccnc3)n2)c(C)c1 | inactive |
| COc1ccc(/C=C2\CSc3ccc(F)cc3C2=O)cc1 | inactive |
| Cc1cc(NNC(=O)c2ccccc2Cl)nc2c1c(C)nn2C | inactive |

* * *

The entries below are paired with their reported normalized growth.
# assay-overview: chemical genetic growth profiling, strain panel (AID 1159580);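 note: tested at 20 µM; growth read once vehicle control cultures reached saturation at 30 °C; 1 = growth at the plate median or of vehicle wells; lower values mean less growth of the strain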
# experimental-conditions: S. cerevisiae deletion strains, growth OD, locus YKR091W, strain srl3, active compounds read low
The whole screen tested about 5,500 compounds, of which about 2,000 (36%) were called active. Roughly 18% stayed inconclusive and do not appear here. This is one part of the list.
quantity-measured: normalized growth

| compound | quantity-measured | endpoint-result |
| --- | --- | --- |
| COc1cc2c(cc1OC)Cc1cc(OC)c(OC)cc1Cc1cc(OC)c(OC)cc1C2 | normalized growth | 1.03 |
| COc1ccc2c(c1OC)C(=O)O[C@H]2[C@H]1c2cc3c(cc2CCN1C)OCO3 | normalized growth | 0.99 |
| CN1CCc2cc3c(cc2[C@H]1C1OC(=O)c2c1ccc1c2OCO1)OCO3 (some centres undefined) | normalized growth | 0.99 |
| ClC1=C(Cl)C2(Cl)C3C4C=CC(C4)C3C1(Cl)C2(Cl)Cl (centres undefined) | normalized growth | 0.996 |
| CN(C)CC/C=C1\c2ccccc2Sc2ccc(Cl)cc21 | normalized growth | 0.987 |
| CNC(C)[C@H](O)c1ccccc1 (some centres undefined) | normalized growth | 1 |
| C=Cc1c2[nH]c(c1C)C=c1[nH]c(c(C)c1C=C)=CC1N=C(C=c3[nH]c(c(C)c3CCC(=O)O)=C2)C(CCC(=O)O)=C1C (centres undefined) | normalized growth | 1 |
| CC1=C(/C=C/C(C)=C/C=C/C(C)=C/C=C/C=C(C)/C=C/C=C(C)/C=C/C(=O)[C@]2(C)C[C@@H](O)CC2(C)C)C(C)(C)C[C@H](O)C1 | normalized growth | 1.01 |
| CCOC(=O)c1c(C)cc(O)c(C=O)c1O | normalized growth | 0.851 |
| CC(N)CCCC(C)(C)O (centres undefined) | normalized growth | 0.977 |
| CC(CCc1ccccc1)NC(C)C(O)c1ccc(O)cc1 (centres undefined) | normalized growth | 1 |
| CCC(=O)O[C@H]1[C@H](O[C@@H]2[C@@H](C)[C@H](O[C@H]3C[C@@](C)(OC)[C@@H](O)[C@H](C)O3)[C@@H](C)C(=O)O[C@H](CC)[C@@](C)(O)[C@H](O)[C@@H](C)C(=O)[C@H](C)C[C@@]2(C)O)O[C@H](C)C[C@@H]1N(C)C | normalized growth | 1.02 |
| CN1CCC(=C2c3ccccc3CC(=O)c3sccc32)CC1 | normalized growth | 0.979 |
| COc1ccc(OC)c(C(O)C(C)N)c1 (centres undefined) | normalized growth | 0.989 |
| C[C@]12CCC(=O)C=C1CCC1C2CC[C@@]2(C)C1CC[C@@H]2O (some centres undefined) | normalized growth | 0.991 |
| CN1CCC(=C2c3ccccc3Sc3ccccc32)CC1 | normalized growth | 1.03 |
| c1cncc(C2CCCCN2)c1 (centres undefined) | normalized growth | 0.988 |
| CCC(=O)O[C@H]1CCC2C3CCC4=CC(=O)CC[C@]4(C)C3CC[C@@]21C (some centres undefined) | normalized growth | 0.948 |
| COc1ccc2cc([C@H](C)C(=O)O)ccc2c1 | normalized growth | 0.982 |
| c1ccc(N=Nc2ccccc2)cc1 | normalized growth | 0.987 |
| CN[C@@H](C)[C@@H](O)c1ccccc1 | normalized growth | 1 |
| O=C(O)c1cc2ccccc2[nH]1 | normalized growth | 0.98 |
| C=C1C2CC[C@H]3[C@]4(C)C[C@H](OC5OC(CO)C(OS(=O)(=O)O)C(OS(=O)(=O)O)C5OC(=O)CC(C)C)C[C@@H](C(=O)O)[C@H]4CC[C@]3(C2)[C@H]1O (some centres undefined) | normalized growth | 1.01 |
| COc1cc2c(cc1OC)[C@@H]1C(=O)c3ccc(O)c(CC=C(C)C)c3O[C@@H]1CO2 | normalized growth | 1.03 |
| CCOC(=O)C(=O)C1(C(=O)OCC)Oc2cc(OC)cc(OC)c2C(=O)C1c1ccccc1 (centres undefined) | normalized growth | 0.929 |
| CCOC(=O)CCC(=O)O[C@H]1[C@H](O[C@@H]2[C@@H](C)[C@H](O[C@H]3C[C@@](C)(OC)[C@@H](O)[C@H](C)O3)[C@@H](C)C(=O)O[C@H](CC)[C@@](C)(O)[C@H](O)[C@@H](C)C(=O)[C@H](C)C[C@@]2(C)O)O[C@H](C)C[C@@H]1N(C)C | normalized growth | 1 |
| COc1cc2c(cc1OC)[C@@H]1C(=O)c3ccc4c(c3O[C@@H]1CO2)C=CC(C)(C)O4 | normalized growth | 1 |
| Cc1cc(O)c(C)c(O)c1C(=O)O | normalized growth | 0.99 |
| CCCCNc1cc(C(=O)O)cc(S(N)(=O)=O)c1Oc1ccccc1 | normalized growth | 1 |
| C=C(C)C1CNC(C(=O)O)C1CC(=O)O (centres undefined) | normalized growth | 0.999 |
| CCOC(=O)c1c(C)c(Cl)c(O)c(Cl)c1O | normalized growth | 0.677 |
| NCC1CCC(C(=O)O)CC1 (centres undefined) | normalized growth | 0.997 |
| CC1=C(C(C)O)C2=NC1C=c1[nH]c(c(C)c1C(C)O)=Cc1[nH]c(c(CCC(=O)O)c1C)C=c1[nH]c(c(C)c1CCC(=O)O)=C2 (centres undefined) | normalized growth | 1 |
| CC(=O)O[C@@H]1C[C@@]2(C)C(CC[C@@H]2C(C)=O)C2CCC3=CC(=O)CC[C@]3(C)C21 (some centres undefined) | normalized growth | 1.01 |
| COc1cc2c(cc1OC)[C@@H]1C(=O)c3ccc(OC)c(CC=C(C)C)c3O[C@@H]1CO2 | normalized growth | 1.02 |
| CC1=C(/C=C/C(C)=C/C=C/C(C)=C/C=C/C=C(C)/C=C/C=C(C)/C=C/C2=C(C)C(=O)C(O)CC2(C)C)C(C)(C)CC(O)C1=O (centres undefined) | normalized growth | 1.03 |
| NCCSSCCN | normalized growth | 0.993 |
| CCCCCCCCCCCCCCCC(=O)OC/C=C(C)/C=C/C=C(C)/C=C/C1=C(C)CCCC1(C)C | normalized growth | 1.01 |
| CC(=O)N[C@@H](CC(C)C)C(=O)O | normalized growth | 1 |

* * *

# assay-overview: chemical genetic growth profiling, strain panel (AID 1159580);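 note: tested at 20 µM; growth read once vehicle control cultures reached saturation at 30 °C; 1 = growth at the plate median or of vehicle wells; lower values mean less growth of the strain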
# experimental-conditions: S. cerevisiae strains, growth OD, strain wild type, active compounds read low
In all, about 5,500 compounds went through this assay and about 2,000 (36%) were called active. Inconclusive results (about 18%) are left out. The list shows a part of the results.
quantity-measured: normalized growth

| compound | endpoint-result |
| --- | --- |
| c1cncc(C2CCCCN2)c1 (configuration not stated) | 1.01 |
| CC(=O)NC1SCCC1=O (configuration not stated) | 1.01 |
| Clc1cccc(Cl)c1CSC1=NCCCN1C1CCCCC1 | 1 |
| CC(CCc1ccccc1)NC(C)C(O)c1ccc(O)cc1 (configuration not stated) | 0.995 |
| CCN(CC)CCCC(C)Nc1ccnc2cc(Cl)ccc12 (configuration not stated) | 1.01 |
| C[C@H]1CC2C([C@@H](O)C[C@@]3(C)C2CC[C@]3(O)C(=O)CO)[C@@]2(C)C=CC(=O)C=C12 (some centres not stated) | 0.998 |
| CN[C@@H](C)[C@@H](O)c1ccccc1 | 0.987 |
| O=C(O)c1cc2ccccc2c(Cc2c(O)c(C(=O)O)cc3ccccc23)c1O | 1 |
| COc1cc2c(cc1OC)C1C(=O)c3c(O)cc4c(c3OC1CO2)C=CC(C)(C)O4 (configuration not stated) | 0.932 |
| CCCCCCCCNC(C)C(O)c1ccc(SC(C)C)cc1 (configuration not stated) | 0.0449 |
| CCCCNc1cc(C(=O)O)cc(S(N)(=O)=O)c1Oc1ccccc1 | 0.999 |
| CC(Oc1ccccc1)C(=O)N[C@@H]1C(=O)N2[C@@H]1SC(C)(C)[C@@H]2C(=O)O (some centres not stated) | 1.02 |
| CC1=C(/C=C/C(C)=C/C=C/C(C)=C/C=C/C=C(C)/C=C/C=C(C)/C=C/C23OC2(C)CC(O)CC3(C)C)C(C)(C)CC(O)C1 (configuration not stated) | 1.01 |
| C=C1C([C@]2(C)C(CC(=O)OC)[C@@](C)(COC(C)=O)OC(=O)C[C@@H]2OC(C)=O)[C@@H](OC=O)[C@H](OC(=O)C(OC(C)=O)C(C)CC)[C@@]2(C)[C@H](c3ccoc3)CC(=O)C12O (some centres not stated) | 1.03 |
| COc1ccccc1N1CCN(S(=O)(=O)c2cc(C)c(Cl)cc2C)CC1 | 0.985 |
| O=C(O)c1cc2ccccc2[nH]1 | 0.994 |
| COc1ccc2c(c1OC)C(=O)O[C@@H]2[C@H]1c2cc3c(cc2CCN1C)OCO3 | 1.01 |
| CCN(CC)CCCC(C)Nc1c2ccc(Cl)cc2nc2ccc(OC)cc12 (configuration not stated) | 0.755 |
| COc1ccc2c(c1OC)C(=O)O[C@H]2[C@H]1c2cc3c(cc2CCN1C)OCO3 | 0.982 |
| CN(C)C(=S)SSC(=S)N(C)C | 0.0482 |
| S=c1nc[nH]c2nc[nH]c12 | 1 |
| CC(C)(C)c1cc(-c2csc(-c3ccc(Cl)cc3)n2)cc(C(C)(C)C)c1O | 1.02 |
